Biological target: N188S/G183W mutant GCase (Homo sapiens, UniProt P04062, N227S)
Construct: endogenous in cells; host or cells: skin fibroblasts of N188S/G183W type 3 Gaucher patients
Sequence (P04062 40-536 N227S): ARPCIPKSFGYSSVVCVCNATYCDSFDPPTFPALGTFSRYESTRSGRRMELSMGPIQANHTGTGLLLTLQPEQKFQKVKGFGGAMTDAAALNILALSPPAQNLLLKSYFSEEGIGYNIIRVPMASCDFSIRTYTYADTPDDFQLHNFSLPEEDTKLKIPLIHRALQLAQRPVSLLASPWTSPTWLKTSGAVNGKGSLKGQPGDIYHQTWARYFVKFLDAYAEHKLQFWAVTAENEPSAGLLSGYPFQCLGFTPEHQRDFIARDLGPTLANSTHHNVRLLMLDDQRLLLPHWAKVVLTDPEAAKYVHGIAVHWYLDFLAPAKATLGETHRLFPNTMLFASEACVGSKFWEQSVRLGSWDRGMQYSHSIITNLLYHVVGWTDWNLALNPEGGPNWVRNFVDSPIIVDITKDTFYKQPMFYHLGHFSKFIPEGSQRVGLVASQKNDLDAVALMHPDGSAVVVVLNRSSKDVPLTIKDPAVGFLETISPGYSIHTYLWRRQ
Assay: Chaperone test in N188S/G183W type 3 Gaucher patient fibroblasts
Type: cell-based
Conditions: N188S/G183W Gaucher fibroblasts
Excerpt: To test the chaperoning capabilities, Gaucher fibroblasts from patients hosting the adult neuronopathic (type 3) Gaucher disease-associated N188S/G183W mutant GCase were employed. It is worth mentioning that the neuronopathic clinical subtypes of Gaucher disease remain currently at orphan status, given the inability of the recombinant enzyme used in enzyme replacement therapy or the glucosylceramide synthase inhibitor Zavesca® used in substrate reduction therapy to cross the blood–brain barrier. […]
Readout: concentration of maximum chaperoning effect (µM)
Give the value in µM but do not write µM after it.

// solved cases for concentration of maximum chaperoning effect follow
Compound: CCCCCCCCN=C1OCC2C(O)C(O)C(O)C(O)N12 (stereo not shown)
Test result: 20
//
Compound: CCCCCCCCN=C1SCC2C(O)C(O)C(O)CN12 (stereo not shown)
Test result: 0.002
//
Compound: CCCCCCCC/N=C1/OC[C@@H]2[C@@H](O)[C@H](O)[C@@H](O)CN12
Test result: 0.2

Here is another compound to look at.
## Input Which concentration of maximum chaperoning effect is reported for this compound? CCCCCCCCN=C1SCC2C(O)C(O)C(O)C(O)N12 (stereo not shown)
## Output 2
